- Test system: MDA-MB-231 breast
- Assay Comment: NCI-60 one-dose screen, 48 h
- Experimental Parameters: 10 µM unless noted
About 83,000 compounds went through this panel and 20% of them were active in at least one assay; those are over-represented in the sample as a whole. Activity calls are given as the source filed them. The calls were made as follows: active = growth percent below 10; inactive = the rest.
Outcomes: active, inactive

[[record]]
compound = "O=C(NC1CCS(=O)(=O)C1)c1ccc(C(=O)c2ccccc2)cc1 (centres undefined)"
class = "inactive"

[[record]]
compound = "C[C@H]1O[C@@H](O[C@H]2[C@@H](O)C[C@H](O[C@H]3[C@@H](O)C[C@H](O[C@H]4CC[C@]5(C)C6CC[C@]7(C)[C@@H](C8=CC(=O)OC8)CC[C@]7(O)C6CC[C@@H]5C4)O[C@@H]3C)O[C@@H]2C)C[C@H](O)[C@@H]1O (some centres undefined)"
class = "active"

[[record]]
compound = "COc1ccc(C2CC(c3ccc4c(c3)OCO4)=NN2C=O)cc1 (centres undefined)"
class = "inactive"

[[record]]
compound = "Cc1nn(-c2ccccc2)cc1/C=C1\\SC(N2CCCCC2)=NC1=O"
class = "inactive"

[[record]]
compound = "COCCCNS(=O)(=O)c1ncnc2nc[nH]c12"
class = "inactive"

[[record]]
compound = "COc1ccc(-c2ccc(O)c(C(=O)/C=C/c3cc(OC)c(OC)c(OC)c3)c2)cc1"
class = "inactive"

[[record]]
compound = "Nc1ccc(N=Nc2ccccc2)cc1[N+](=O)[O-]"
class = "inactive"

[[record]]
compound = "O=C(Nc1ccc(Cl)cc1)Nc1ccccc1CNc1nc(Nc2ccc(OCCN3CCCC3)cc2)ncc1Cl"
class = "active"

[[record]]
compound = "C[C@@H]1CN(c2nc3c(cc2F)c(=O)c(C(=O)O)cn3C(C)(C)C)C[C@H](C)N1"
class = "inactive"


* * *

- System: HCT-15 colon
- Assay Comment: NCI-60 one-dose screen, 48 h (100 = growth as untreated, 0 = no growth, -100 = all killed)
- Experimental Parameters: 10 µM unless noted
This is part of a sample that, as a whole, favours compounds with a hit. Of some 83,000 tested, about 20% had one in any assay.
Each entry below carries its recorded growth.
Measured Endpoint: growth (%)

[[record]]
compound = "O=C(O)CCC(=O)OC[C@@H](NC(=O)C(Cl)Cl)[C@H](O)c1ccc([N+](=O)[O-])cc1"
observed = 93.9

[[record]]
compound = "OC(c1cc(-c2cccc(Cl)c2)nc2ccccc12)C1CCCCN1 (stereo unspecified)"
observed = -61.9

[[record]]
compound = "COC(=O)C1=CCC(n2cnc3c(N)ncnc32)O1 (stereo unspecified)"
observed = 109

[[record]]
compound = "CC(C)N(Cc1ccccc1)c1c(S)ssc1=S"
observed = 10.4

[[record]]
compound = "O=C(c1ccc(Cl)cc1)c1ccc(Cl)cc1"
observed = 113

[[record]]
compound = "CCOC(=O)Nc1ccc2c3c(cccc13)-c1ccccc1-2"
observed = 25.2

[[record]]
compound = "O=C1NC(=O)/C(=C/c2ccc(Cl)cc2Cl)N1"
observed = 103

[[record]]
compound = "O=C(NC1CCCCC1)c1ccc(Nc2ncnc3c2cnn3-c2ccccc2)cc1"
observed = 66.6

[[record]]
compound = "COc1cc(C2CC(C3C(=O)N(C)C(=O)N(C)C3=O)=NN2C=O)cc(OC)c1OC (stereo unspecified)"
observed = 102

[[record]]
compound = "CCOC(=O)c1cnc2c(C)cc(C)cc2c1NCCCN(C)C"
observed = 28.2

[[record]]
compound = "CCCCCCCSc1ncnc2[nH]ncc12"
observed = 60.8


* * *

- Tested on: MOLT-4 leukemia
- Assay Comment: NCI-60 one-dose screen, 48 h (100 = growth as untreated, 0 = no growth, -100 = all killed)
- Experimental Parameters: 10 µM unless noted
This is part of a sample that, as a whole, favours compounds with a hit. Of some 83,000 tested, about 20% had one in any assay.
Response key: criterion met means growth >= 30%; criterion not met means growth < 30%.

[[record]]
molecule = "COc1ccc(CNC(=O)c2c(C)n([O-])c3ccc(OC)cc3[n+]2=O)cc1"
class = "criterion met"

[[record]]
molecule = "Cc1ncc(C(=O)Nc2ccc(CN3CCN(C)CC3)c(C(F)(F)F)c2)cc1C#Cc1cncc2ncccc12"
class = "criterion met"

[[record]]
molecule = "O=C(Nc1ccccc1S)c1ccccc1"
class = "criterion met"

[[record]]
molecule = "Cc1cc(C)c(C(=O)c2cccs2)c(C)c1"
class = "criterion met"

[[record]]
molecule = "O=C(/C=C/c1cccc(O)c1)c1cccc(-n2cc(-c3ccccc3)[nH]c2=O)c1"
class = "criterion not met"

[[record]]
molecule = "COc1cccc(N2CCN(c3cccc(C)n3)CC2)c1"
class = "criterion met"

[[record]]
molecule = "COc1cccc2c1C(=O)c1c(O)c3c(c(O)c1C2=O)C[C@@](O)(C(C)=O)C[C@@H]3O[C@H]1C[C@H](N)[C@H](O)[C@H](C)O1"
class = "criterion not met"

[[record]]
molecule = "c1ccc2nc(Cn3c[n+](Cc4ccc5ccccc5n4)c4ccccc43)ccc2c1"
class = "criterion met"

[[record]]
molecule = "Cc1ccc2c(c1)C(=O)/C(=C\\Nc1ccc(C(N)=O)cc1)C(O)O2 (stereo unspecified)"
class = "criterion met"

[[record]]
molecule = "Oc1ccccc1/C=N/N1CCCCCC1"
class = "criterion met"

[[record]]
molecule = "Oc1c(N=Nc2nn[nH]n2)ccc2ccccc12"
class = "criterion met"

[[record]]
molecule = "COc1ccc(C(=O)COc2cccc(/C=C3\\COc4ccc5ccccc5c4C3=O)c2)cc1"
class = "criterion met"

[[record]]
molecule = "O=C(N/N=C/c1cccc(O)c1)c1ccc(C(F)(F)F)nc1Nc1cccc(C(F)(F)F)c1"
class = "criterion not met"

[[record]]
molecule = "COC(=O)N/N=C/c1coc2ccc(Cl)cc2c1=O"
class = "criterion met"

[[record]]
molecule = "O=C1C2C(C(=O)N1CC[Se][Se]CCN1C(=O)C3C(C1=O)[C@H]1C=C[C@@H]3C1)[C@H]1C=C[C@@H]2C1 (stereo partly specified)"
class = "criterion not met"

[[record]]
molecule = "Cc1cc(-c2ccccc2)cc(C)n1"
class = "criterion met"

[[record]]
molecule = "O=C1Nc2ccc(C(=O)O)c(O)c2C1=O"
class = "criterion met"

[[record]]
molecule = "COc1cnc2c(c1)C(=O)c1c-2n(CCCN2CCC(O)CC2)c(=O)c2cc(F)ccc12"
class = "criterion not met"

[[record]]
molecule = "COc1cnc2c(c1)C(=O)c1c-2n(CCCn2ccnc2)c(=O)c2cc(F)ccc12"
class = "criterion not met"

[[record]]
molecule = "COc1ccc2c(c1)CC/C(=C\\c1ccc(OCC(=O)Nc3nc4ccccc4s3)cc1)C2=O"
class = "criterion met"

[[record]]
molecule = "Fc1ccc(-c2nn3c(-c4cc(C(F)(F)F)cc(C(F)(F)F)c4)nnc3s2)cc1"
class = "criterion met"


* * *

- Tested on: U251 CNS
- Assay Comment: NCI-60 one-dose screen, 48 h (100 = growth as untreated, 0 = no growth, -100 = all killed)
- Experimental Parameters: 10 µM unless noted
This is part of a sample that, as a whole, favours compounds with a hit. Of some 83,000 tested, about 20% had one in any assay. The source made the active and inactive calls. How the source made its calls: active means growth percent below 10; inactive means the rest.
Each entry below carries its recorded growth.
Measured Endpoint: growth

[[record]]
compound = "N/C(=N\\C(N)=N\\c1nc2ccccc2s1)c1ccnc(Cl)c1"
measured_endpoint = "growth"
observed = "33.8% (inactive)"

[[record]]
compound = "O=CN1N=C(c2ccc(Nc3ccnc4cc(Cl)ccc34)cc2)CC1c1ccc(Cl)cc1 (stereo not drawn)"
measured_endpoint = "growth"
observed = "27.6% (inactive)"

[[record]]
compound = "CCOC(=O)N1CCC(N=C2CSc3nnc(-c4cc(C(F)(F)F)cc(C(F)(F)F)c4)n3N2)CC1"
measured_endpoint = "growth"
observed = "22.6% (inactive)"

[[record]]
compound = "CCN1CC2=C(Nc3nc(SC)[nH]c(=O)c3C2c2cc(OC)c(OC)c(OC)c2)/C(=C/c2cc(OC)c(OC)c(OC)c2)C1 (stereo not drawn)"
measured_endpoint = "growth"
observed = "83.8% (inactive)"

[[record]]
compound = "Cc1ccccc1NC(=O)N/C(N)=N/c1nc2ccccc2s1"
measured_endpoint = "growth"
observed = "20.3% (inactive)"

[[record]]
compound = "C=CCN(/C=C/CN(CC=C)CC=C)CC=C"
measured_endpoint = "growth"
observed = "97.3% (inactive)"

[[record]]
compound = "CCN(CC)c1ccc(N=C2C=CC(=O)C=C2NC(C)=O)cc1"
measured_endpoint = "growth"
observed = "87.9% (inactive)"

[[record]]
compound = "O=c1[nH]cc(Nc2cc(Cl)c3nonc3c2[N+](=O)[O-])c(=O)[nH]1"
measured_endpoint = "growth"
observed = "98.6% (inactive)"

[[record]]
compound = "O=C(Oc1ccccc1)C(Br)C(Br)c1ccccc1 (stereo not drawn)"
measured_endpoint = "growth"
observed = "75.7% (inactive)"

[[record]]
compound = "O=Nc1c2cccnc2n2nnc3ccc(Cl)cc3c12"
measured_endpoint = "growth"
observed = "50.6% (inactive)"

[[record]]
compound = "Cc1ccc(OCC(=O)Nc2ccc(Oc3ccccc3)cc2)c([N+](=O)[O-])n1"
measured_endpoint = "growth"
observed = "85% (inactive)"

[[record]]
compound = "O=C1CNc2cc(Cl)ccc2N1"
measured_endpoint = "growth"
observed = "101% (inactive)"

[[record]]
compound = "CCCCc1ccc(C(N)=O)nc1"
measured_endpoint = "growth"
observed = "100% (inactive)"

[[record]]
compound = "CC1c2ccccc2-c2ccccc2N1C (stereo not drawn)"
measured_endpoint = "growth"
observed = "99.2% (inactive)"

[[record]]
compound = "O=C(NCCNC(=O)Oc1cccc2ccccc12)Oc1cccc2ccccc12"
measured_endpoint = "growth"
observed = "116% (inactive)"

[[record]]
compound = "O=C(Nc1ccccc1S)c1ccccc1"
measured_endpoint = "growth"
observed = "94.8% (inactive)"

[[record]]
compound = "c1ccc(-c2n(Cc3ccc4ccccc4c3)cc[n+]2Cc2ccc3ccccc3c2)cc1"
measured_endpoint = "growth"
observed = "-93.5% (active)"

[[record]]
compound = "CCCCCCCCCCNCCSS(=O)(=O)O"
measured_endpoint = "growth"
observed = "15% (inactive)"

[[record]]
compound = "CN(C)c1ncnc2c1ncn2C1CCCCO1 (stereo not drawn)"
measured_endpoint = "growth"
observed = "108% (inactive)"

[[record]]
compound = "CCOC(=O)c1cnc2c(C)cc(C)cc2c1NCCCN(C)C"
measured_endpoint = "growth"
observed = "28.3% (inactive)"

[[record]]
compound = "CCOC(=O)OCC(=O)[C@@]1(O)CC[C@H]2[C@@H]3CCC4=CC(=O)CC[C@]4(C)[C@H]3[C@@H](O)C[C@@]21C"
measured_endpoint = "growth"
observed = "103% (inactive)"

[[record]]
compound = "O=C(CSc1ncc(-c2ccccc2)n1-c1ccccc1)Nc1ccc(-c2nc3ccccc3s2)cc1"
measured_endpoint = "growth"
observed = "24.7% (inactive)"

[[record]]
compound = "COc1ccc(C2=NN(C(C)=O)C(c3c(C)nn(-c4ccccc4)c3N3CCOCC3)C2)cc1 (stereo not drawn)"
measured_endpoint = "growth"
observed = "89.3% (inactive)"

